Recorded values, source ChEMBL document CHEMBL1157539.

Tested on: Plasmodium falciparum
Assay Text: GSK_TCMDC: Inhibition of Plasmodium falciparum 3D7 in whole erythrocytes, using parasite LDH activity as an index of growth.
Type: functional, organism-based
Assay Setup: Plasmodium falciparum, 3D7
Experimental Readout: XC50 (µM)
The response must be a number in µM with no trailing unit.

{"columns": ["Compound", "Subject Of Test", "Unit Name", "XC50"],
 "data": [
  ["O=C1Nc2cccc3c2C1(CCCCN1CCC(c2c[nH]c4cc(C(F)(F)F)ccc24)CC1)CCC3 (stereo unspecified)", "Plasmodium falciparum", "µM", 0.715],
  ["COc1ccc2nccc(N3CCC(NCCNCc4cc5c(cn4)OCCO5)C3)c2n1 (stereo unspecified)", "Plasmodium falciparum", "µM", 0.578],
  ["Oc1cc2c(cc1CN1CCN(Cc3ccccc3F)CC1)CCC2", "Plasmodium falciparum", "µM", 0.761],
  ["CN1CCCC(OC(=O)c2ccccc2)C1 (stereo unspecified)", "Plasmodium falciparum", "µM", 0.756],
  ["COc1ccccc1-c1ccc2nnc(SCC(=O)Nc3ccc4c(c3)OCCO4)n2n1", "Plasmodium falciparum", "µM", 0.716]
]}

# input for lookup
Ask: What does the record list as XC50 for CCCC(=O)c1cnc2c(I)cccc2c1Nc1ccccc1C ?
Reply: 1.16
